- Test system: IGROV1 ovarian
- protocol_text: NCI tumour cell line growth inhibition, 48 h
Recorded TGI values for a group of compounds are listed next.

Worked set:
# compound, result
rows = [
    ("Clc1cc(Cl)cc(C2ON=C(c3ccccc3)N2C23CC4CC(CC(C4)C2)C3)c1 (stereo unspecified)", "> 10 µM"),
    ("Cc1nc2c(=O)n(-c3ccccc3)c3ccccc3c2o1", "> 100 µM"),
    ("N#Cc1c2c(c(N=P(c3ccccc3)(c3ccccc3)c3ccccc3)n3c1nc1ccccc13)CCCC2", "> 100 µM"),
    ("C=CCSC1=N/C(=C\\c2cccs2)C(=O)N1CC=C", "> 100 µM"),
    ("CC1COc2c(N3CCN(C)CC3)c(F)cc3c(=O)c(C(=O)O)cn1c23 (stereo unspecified)", "> 100 µM"),
]

Prompt line: State recorded TGI with IGROV1 ovarian, entry CC1Oc2c(c(=O)oc3ccccc23)[C@@]1(C)CC1C[C@H](C)C(=O)O1 (stereo partly specified) , no comment.
Response line: > 100 µM

Prompt line: State recorded TGI with IGROV1 ovarian, entry CC(=O)Nc1ccc(-c2nc3ccccc3s2)cc1I , no comment.
Response line: 20 µM

---

- Tested on: HCC-2998 colon
- protocol_text: NCI tumour cell line growth inhibition, 48 h
Recorded TGI values for a group of molecules are listed next.

# molecule, TGI
records = [
    ("CCCCCCCCCCCCCC1=NCCN1CCO", "16.5 µM"),
    ("Cc1nc2c(=O)n(-c3ccccc3)c3ccccc3c2o1", "> 100 µM"),
    ("Cc1ccc(Nc2c(C#N)[n+]([O-])c3cc(Cl)ccc3[n+]2[O-])cc1", "> 100 µM"),
    ("CC(C)(C)OC(=O)NCCc1cccc2c1oc1c(CCC(=O)O)cccc12", "> 100 µM"),
    ("C[n+]1c(-c2ccc(/C=N/NC(=O)C(=O)N/N=C/c3ccc(-c4cn5ccsc5[n+]4C)cc3)cc2)cn2ccsc21", "> 100 µM"),
]

Prompt line: Look up and state reported TGI for CC(=O)OC1CCCn2c1nc1c2C(=O)C(C)=C(N2CC2)C1=O (stereo not drawn)
Response line: 0.722 µM

Prompt line: Look up and state reported TGI for CCOC(=O)c1cnc2n(c1=N)[C@H]1CCCC[C@@H]1N2
Response line: > 100 µM

Prompt line: Look up and state reported TGI for O=C(N=Nc1cccc(Cl)c1)NNc1cccc(Cl)c1
Response line: 28.9 µM

---

Recorded GI50 values for a group of molecules are listed next.
- Tested on: NCI-H23 lung
- protocol_text: NCI tumour cell line growth inhibition, 48 h

# molecule, result
rows = [
    ("Cn1cc(C2=C(c3cn(C)c4c([N+](=O)[O-])cccc34)C(=O)NC2=O)c2ccccc21", "> 25 µM"),
]

Prompt line: Look up and state reported GI50 for COC(=O)[C@]12CC[C@@H](C)[C@H](C)[C@@H]1C1=CC[C@@H]3[C@@]4(C)C(C=O)=C[C@@](C)(COC(C)=O)C4=CC[C@@]3(C)[C@]1(C)CC2
Response line: 4.53 µM

Prompt line: Look up and state reported GI50 for CC(C)(C)C(=O)OCOP(=O)(OCOC(=O)C(C)(C)C)C1CC(O)N(O)C1=O (centres undefined)
Response line: 3.67 µM

Prompt line: Look up and state reported GI50 for CC1=CC(=C(c2ccc(N)cc2)c2ccc(N)cc2)C=CC1=N
Response line: 0.828 µM
